# Assay method text: Toxicity liver stage against HepG2, at 10uM
# Type: cell-based
# Parameters: test concentration 10 uM, cell line HepG2-A16-CD81EGFP
# Experimental parameters: human, HepG2-A16-CD81EGFP cells; read-out: INHIBITION
This listing pairs compounds with measured cytotoxicity at 10 µM.
Endpoint: cytotoxicity at 10 µM (%)

compound="CCOCC(O)CN1CCN(C(=O)C2CCCCC2)CC1 (stereo unspecified)" reported=-21.5
compound=Cc1nn(C)c2nc(C(C)C)cc(C(=O)Nc3n[nH]c(C4CC4)n3)c12 reported=-4.38
compound="CCNC(=O)N1CCCCC1CCNS(C)(=O)=O (stereo unspecified)" reported=-7.71
compound="CCn1nc(CNC(=O)C2CC(=O)N(C3CCCC3)C2)c2ccccc21 (stereo unspecified)" reported=-25.8
compound=Cc1nc(CCN)cc(N2CCCN(C(=O)c3ccco3)CC2)n1 reported=1.24
compound="CCCc1cc(N2CCCC2Cn2cc(C)cn2)n2ncnc2n1 (stereo unspecified)" reported=3.04

###

# Assay method text: Toxicity liver stage against HepG2, at 10uM
# Format: cell-based
# Design: test concentration 10 uM, cell line HepG2-A16-CD81EGFP
# Experimental parameters: human, HepG2-A16-CD81EGFP cells; read-out: INHIBITION
Endpoint: cytotoxicity at 10 µM (%)

compound="Cc1c(CN2CCCC(O)C2)[nH]c2ccc(F)cc12 (stereo not drawn)" endpoint="cytotoxicity at 10 µM" reported=9.35
compound=CC(=O)c1cccc(NC(=O)COc2c(C)n(C)ccc2=O)c1 endpoint="cytotoxicity at 10 µM" reported=2.45
compound="CN(C)c1ccc(CCCNC(=O)NCC(O)c2ccsc2)cc1 (stereo not drawn)" endpoint="cytotoxicity at 10 µM" reported=-6.88
compound=Cc1ccc2c(c1)[C@@H](CC(=O)N1CCOCC1)CCO2 endpoint="cytotoxicity at 10 µM" reported=8.24
compound="Fc1cccc(CNCC2Cn3nncc3CO2)c1 (stereo not drawn)" endpoint="cytotoxicity at 10 µM" reported=10.9
compound=c1ccc(Cc2nnc(CN3CCn4c(nnc4C4CC4)C3)o2)cc1 endpoint="cytotoxicity at 10 µM" reported=-0.192
compound=O=C([C@@H](O)Cc1ccccc1)N1CCCn2cncc2C1 endpoint="cytotoxicity at 10 µM" reported=2.55
compound=Cc1cccc(CN2C[C@@H]3COC[C@]3(CNC(=O)N3CCCC3)C2)n1 endpoint="cytotoxicity at 10 µM" reported=1.05
compound=NC(=O)CN1CCCN(C(=O)COc2cccc(F)c2)CC1 endpoint="cytotoxicity at 10 µM" reported=-1.97
compound="CCCC(C)N(C)C(=O)c1nc(S(C)(=O)=O)n2ccccc12 (stereo not drawn)" endpoint="cytotoxicity at 10 µM" reported=-8.16
compound=CCN1CC2(CCC1=O)CCN(CCOc1ccc(F)cc1)CC2 endpoint="cytotoxicity at 10 µM" reported=4.19
compound=COCC(=O)N[C@H](C)c1onc(-c2ccc(OC)cc2)c1C(=O)O endpoint="cytotoxicity at 10 µM" reported=4.82
compound=CN(C)S(=O)(=O)N1CC[C@]2(C[C@H](Oc3cccnc3)CO2)C1 endpoint="cytotoxicity at 10 µM" reported=-0.465
compound=CCN(CC)S(=O)(=O)c1ccc(NC(=O)C(C)(C)C)cc1 endpoint="cytotoxicity at 10 µM" reported=9.22
compound="COCC1c2nnn(CC3CC3)c2CCN1C(=O)c1sccc1C (stereo not drawn)" endpoint="cytotoxicity at 10 µM" reported=-147
compound=O=C(Cn1ccnc1)N1C[C@@H]2CC[C@H](Oc3ccc(Cl)cc3)[C@@H]2C1 endpoint="cytotoxicity at 10 µM" reported=-3.8
compound=CCn1c(SCC(=O)N2CCCC2)nc2cc(C)[nH]c2c1=O endpoint="cytotoxicity at 10 µM" reported=7.44
compound="CCOc1ccc(CN2CCC(c3[nH]ncc3C)C2)cc1CO (stereo not drawn)" endpoint="cytotoxicity at 10 µM" reported=-2.38
compound="COCCN1CCN(CCCS(C)(=O)=O)CC1C (stereo not drawn)" endpoint="cytotoxicity at 10 µM" reported=-5.5
compound=O=C(N[C@H]1COC[C@@H]1N1CCCC1)c1csc(Cc2ccccc2)n1 endpoint="cytotoxicity at 10 µM" reported=-30.2
compound=Cc1nsc(C(=O)NCCc2ccc(Cl)cc2)n1 endpoint="cytotoxicity at 10 µM" reported=2.09
compound=COCCNC1(c2ccc(Cl)cc2)CCOCC1 endpoint="cytotoxicity at 10 µM" reported=7.06
compound=CC(C)n1nc(CN2CCCC2=O)c2c1CN(C(=O)c1ccc[nH]1)C2 endpoint="cytotoxicity at 10 µM" reported=5.39
compound="c1ccc(-c2nnc(CNC3CCCN(c4cccnn4)C3)o2)cc1 (stereo not drawn)" endpoint="cytotoxicity at 10 µM" reported=-9.45
compound=COCCN1CC(=O)c2sc(NCc3ccccc3)nc2C1 endpoint="cytotoxicity at 10 µM" reported=-6.77
compound=COc1ccc(Br)cc1CN(C)c1nc2c(cnn2C)c(=O)[nH]1 endpoint="cytotoxicity at 10 µM" reported=48.1
compound="Cc1cc(CN(C)C(=O)NCC2CCS(=O)(=O)C2)no1 (stereo not drawn)" endpoint="cytotoxicity at 10 µM" reported=-0.874
compound=Cc1cccc(OC2CCN(C(=O)CNC(=O)N(C)C)CC2)c1 endpoint="cytotoxicity at 10 µM" reported=-0.951
compound="CC(C)N1CCCCC1c1cncc(Cl)n1 (stereo not drawn)" endpoint="cytotoxicity at 10 µM" reported=8.41
compound="c1cnc(N2CCOCC3(CCCN(CC4CCOCC4)C3)C2)nc1 (stereo not drawn)" endpoint="cytotoxicity at 10 µM" reported=-8.95
compound=CN1CCO[C@@H]2CN(S(=O)(=O)c3ccccc3)C[C@@H]2C1 endpoint="cytotoxicity at 10 µM" reported=0.93
compound=N#Cc1cn(CCCN2CCc3ccccc32)c(=O)[nH]c1=O endpoint="cytotoxicity at 10 µM" reported=6.48
compound=COc1ccc(NC(C)=O)c(N2CCN(C(C)=O)CC2)n1 endpoint="cytotoxicity at 10 µM" reported=-8.83
compound=Fc1ccc(OCCNCCn2cccn2)cc1 endpoint="cytotoxicity at 10 µM" reported=-4.17
compound="Cc1ccc(-c2ccnc(NC(C)c3n[nH]c(C)n3)n2)c(C)n1 (stereo not drawn)" endpoint="cytotoxicity at 10 µM" reported=2.83
compound="Fc1cccc(-c2nc(CN3CCCC3Cn3cccn3)co2)c1 (stereo not drawn)" endpoint="cytotoxicity at 10 µM" reported=-11
compound=Cc1nnc(N2C[C@@H](Oc3ccccn3)[C@H]3OCCC[C@H]32)s1 endpoint="cytotoxicity at 10 µM" reported=-5
compound=N[C@@H](Cc1ccccc1)c1nnc(S(=O)(=O)Cc2ccc(Cl)cc2)o1 endpoint="cytotoxicity at 10 µM" reported=14.2
compound="Cc1nn(C)c(C)c1C(C)NCc1ccsc1 (stereo not drawn)" endpoint="cytotoxicity at 10 µM" reported=5.42
compound=CCN1CC2(CCC1=O)CCN(C(=O)c1cn3cccnc3n1)CC2 endpoint="cytotoxicity at 10 µM" reported=-9.7
compound=CC(=O)N(C)CC(=O)Nc1cc(C(F)(F)F)c[nH]c1=O endpoint="cytotoxicity at 10 µM" reported=4.57
compound="CC(C)(C)OC(=O)NCC1CCCCN1Cc1cccc(C(N)=O)c1 (stereo not drawn)" endpoint="cytotoxicity at 10 µM" reported=-2.27
compound=Cc1nn(C)c(Cl)c1C(=O)NCC1(C(N)=O)CCOCC1 endpoint="cytotoxicity at 10 µM" reported=1.64
compound="CCC(NC(=O)C1CCN(S(C)(=O)=O)CC1)c1ccc(C)cc1C (stereo not drawn)" endpoint="cytotoxicity at 10 µM" reported=-10.6
compound="NCCn1cc(C(=O)N2CCNC(=O)C2c2cccc(F)c2)nn1 (stereo not drawn)" endpoint="cytotoxicity at 10 µM" reported=3.62
compound=CC(C)C(=O)NCCNC(=O)CCOc1cccc(F)c1 endpoint="cytotoxicity at 10 µM" reported=-2.98
compound="O=C(Nc1nncs1)C1CSCN1C(=O)C1CCCC1 (stereo not drawn)" endpoint="cytotoxicity at 10 µM" reported=11.3
compound=NC(=O)CCNC(=O)C1(N2CCCCC2)Cc2ccccc2C1 endpoint="cytotoxicity at 10 µM" reported=-8.56
